Hi there, I'd appreciate the recorded IC50 for every entry that follows.
measured_on: TGF-β R1 ALK5 (Homo sapiens, UniProt P36897)
Sequence (P36897 34-503): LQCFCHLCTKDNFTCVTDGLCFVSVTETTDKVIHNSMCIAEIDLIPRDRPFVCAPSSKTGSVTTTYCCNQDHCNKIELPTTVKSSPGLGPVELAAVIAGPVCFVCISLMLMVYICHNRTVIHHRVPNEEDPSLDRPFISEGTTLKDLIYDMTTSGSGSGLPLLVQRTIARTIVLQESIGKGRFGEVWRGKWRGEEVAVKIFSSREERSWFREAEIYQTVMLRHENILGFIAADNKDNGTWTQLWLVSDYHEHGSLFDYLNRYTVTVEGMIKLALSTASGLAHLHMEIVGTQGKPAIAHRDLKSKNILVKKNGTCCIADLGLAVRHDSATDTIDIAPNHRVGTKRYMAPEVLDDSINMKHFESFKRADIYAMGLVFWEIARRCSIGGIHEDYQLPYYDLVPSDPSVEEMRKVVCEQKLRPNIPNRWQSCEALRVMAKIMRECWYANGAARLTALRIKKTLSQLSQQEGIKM
Numbers only; they are read as nM.

**Q:** For the molecule "Cc1ccc(F)c(-c2cc(Nc3c(F)cnc4cnn(C)c34)c(C)cn2)n1" , what IC50 is on record?
**A:** 63.1

**Q:** For the molecule "Cc1ccc(F)c(-c2cc(Nc3ccnc4cnn(CC(N)=O)c34)ccn2)n1" , what IC50 is on record?
**A:** 25.1

**Q:** For the molecule "Cc1ccc(F)c(-c2cc(Nc3ccnc4cnn(CCO)c34)ccn2)n1" , what IC50 is on record?
**A:** 50.1

**Q:** For the molecule "CCNC(=O)n1ncc2nccc(Nc3ccnc(-c4cc(F)ccc4F)c3)c21" , what IC50 is on record?
**A:** 5.01

**Q:** For the molecule "CCNC(=O)Cn1cc2nccc(Nc3cc(-c4cc(F)ccc4F)ncc3C)c2n1" , what IC50 is on record?
**A:** 3.16

**Q:** For the molecule "Cc1ccc(F)c(-c2cc(Nc3ccnc4cn(C5CC5)nc34)c(C)cn2)n1" , what IC50 is on record?
**A:** 2

**Q:** For the molecule "Cc1ccc(F)c(-c2cc(Nc3ccnc4cnn(C[C@@H](C)O)c34)ccn2)n1" , what IC50 is on record?
**A:** 6.31

**Q:** For the molecule "Cc1ccc(F)c(-c2cc(Nc3ccnc4cn(CCO)nc34)c(C)cn2)n1" , what IC50 is on record?
**A:** 7.94

**Q:** For the molecule "Cc1cnc(-c2cc(F)ccc2F)cc1Nc1ccnc2cnn(C(=O)NC(C)C)c12" , what IC50 is on record?
**A:** 5.01

These measurements were taken from patent US9073918B2.
